Molecular target: 17β-HSD3 (Homo sapiens, UniProt P37058)
Construct: expressed in transfected cells; host or cells: HEK-293 (homogenate)
Sequence (P37058 whole entry): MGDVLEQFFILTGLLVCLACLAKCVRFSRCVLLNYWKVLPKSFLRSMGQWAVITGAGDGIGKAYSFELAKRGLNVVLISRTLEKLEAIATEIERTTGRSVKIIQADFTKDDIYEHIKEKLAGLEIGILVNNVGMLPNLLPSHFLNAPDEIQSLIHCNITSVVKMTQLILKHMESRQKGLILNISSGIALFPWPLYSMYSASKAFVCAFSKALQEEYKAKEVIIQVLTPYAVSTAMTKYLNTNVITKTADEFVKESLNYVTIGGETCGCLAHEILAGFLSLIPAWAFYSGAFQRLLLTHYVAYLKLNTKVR
Test: Inhibition of 17β-HSD3 in homogenated HEK-293 cells
Type: biochemical
Conditions: read-out: Homo (%) (0.1 μM), Table 2 (17β-HSD3); 0.1 μM
inhibition at 0.1 µM for assorted molecules
measure: inhibition at 0.1 µM (%)

smiles structure: C[C@]12CC[C@](O)(CN3CCN(c4ccccc4)CC3)C[C@@H]1CC[C@@H]1[C@@H]2CC[C@]2(C)C(=O)CC[C@@H]12
reading unit: %
value measured: 78

smiles structure: C[C@]12CC[C@](O)(CN3CCCCC3)C[C@@H]1CC[C@@H]1[C@@H]2CC[C@]2(C)C(=O)CC[C@@H]12
reading unit: %
value measured: 19

smiles structure: C[C@]12CC[C@](O)(CN3CCN(Cc4ccccc4)CC3)C[C@@H]1CC[C@@H]1[C@@H]2CC[C@]2(C)C(=O)CC[C@@H]12
reading unit: %
value measured: 72

smiles structure: C[C@]12CC[C@](O)(CN3CCC(Cc4ccccc4)CC3)C[C@@H]1CC[C@@H]1[C@@H]2CC[C@]2(C)C(=O)CC[C@@H]12
reading unit: %
value measured: 82

---

inhibition at 1 µM: recorded values
Target: 17β-HSD1 (Homo sapiens, UniProt P14061)
Construct: endogenous in cells; host or cells: T-47D
Sequence (P14061 whole entry): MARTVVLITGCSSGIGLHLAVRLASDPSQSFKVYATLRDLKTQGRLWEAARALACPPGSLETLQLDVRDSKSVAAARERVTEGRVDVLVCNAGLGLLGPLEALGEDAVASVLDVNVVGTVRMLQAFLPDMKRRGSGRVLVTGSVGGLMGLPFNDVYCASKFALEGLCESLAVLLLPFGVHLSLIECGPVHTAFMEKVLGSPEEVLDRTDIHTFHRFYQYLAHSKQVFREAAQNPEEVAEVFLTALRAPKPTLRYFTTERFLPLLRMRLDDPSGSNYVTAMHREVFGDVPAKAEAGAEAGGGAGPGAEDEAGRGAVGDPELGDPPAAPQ
Assay: Inhibition of 17β-HSD1 in T-47D intact cells (E1 into E2)
Format: cell-based
Conditions: T47D, read-out: Inhibition (1 μM)

molecule: C[C@]12CC[C@@H]3c4ccc(CBr)cc4CC[C@H]3[C@@H]1C[C@H](Cc1cccc(C(N)=O)c1)[C@@H]2O [III]
measured on: 17β-HSD1 (Homo sapiens, UniProt P14061)
inhibition at 1 µM [%]: 66
--
molecule: C[C@]12CC[C@@H]3c4ccc(N)cc4CC[C@H]3[C@@H]1C[C@H](Cc1cccc(C(N)=O)c1)[C@@H]2O [Compound 50]
measured on: 17β-HSD1 (Homo sapiens, UniProt P14061)
inhibition at 1 µM [%]: 43
--
molecule: CNC(=O)c1ccc2c(c1)CC[C@@H]1[C@@H]2CC[C@]2(C)[C@@H](O)[C@@H](Cc3cccc(C(N)=O)c3)C[C@@H]12 [Compound 41d]
measured on: 17β-HSD1 (Homo sapiens, UniProt P14061)
inhibition at 1 µM [%]: 5
--
molecule: CNC(=O)Cc1ccc2c(c1)CC[C@@H]1[C@@H]2CC[C@]2(C)[C@@H](O)[C@@H](Cc3cccc(C(N)=O)c3)C[C@@H]12 [Compound 32]
measured on: 17β-HSD1 (Homo sapiens, UniProt P14061)
inhibition at 1 µM [%]: 15
--
molecule: C[C@]12CC[C@@H]3c4ccc(CN)cc4CC[C@H]3[C@@H]1C[C@H](Cc1cccc(C(N)=O)c1)[C@@H]2O [Compound 39]
measured on: 17β-HSD1 (Homo sapiens, UniProt P14061)
inhibition at 1 µM [%]: 73
--
molecule: C[C@]12CC[C@@H]3c4ccc(CCCBr)cc4CC[C@H]3[C@@H]1C[C@H](Cc1cccc(C(N)=O)c1)[C@@H]2O [Compound 25]
measured on: 17β-HSD1 (Homo sapiens, UniProt P14061)
inhibition at 1 µM [%]: 82
